Listed here are compounds together with their documented MIC.
# System: Staphylococcus aureus
# measurement notes: Antibacterial activity against Staphylococcus aureus ATCC 29213 incubated overnight by agar dilution method
# Assay type: functional
quantity measured: MIC (µg/mL)

>>> measured("C[C@]12C[C@]34C[C@@H]1C[C@H](O2)[C@H]3[C@](C)(CCC(=O)Nc1c(O)ccc(C(=O)O)c1O)C(=O)C[C@@H]4SC(=O)c1ccccc1C(F)(F)F")
2
>>> measured("C[C@]12C[C@]34C[C@@H]1C[C@H](O2)[C@H]3[C@](C)(CCC(=O)Nc1c(O)ccc(C(=O)O)c1O)C(=O)C[C@@H]4SC(=O)c1cc(C(F)(F)F)cc(C(F)(F)F)c1")
1
>>> measured("C=C1C[C@@]23C=CC(=O)[C@@](C)(CCC(=O)Nc4c(O)ccc(C(=O)O)c4O)[C@@H]2C[C@@H]1CC3")
1
>>> measured("C[C@]12C[C@]34C[C@@H]1C[C@H](O2)[C@H]3[C@](C)(CCC(=O)Nc1c(O)ccc(C(=O)O)c1O)C(=O)C[C@@H]4SC(=O)c1cc(F)cc(F)c1")
2
>>> measured("C=C1C[C@@]23CCC1C[C@@H]2[C@](C)(CCC(=O)Nc1c(O)ccc(C(=O)O)c1O)C(=O)C[C@@H]3SC(=O)c1ccccc1 (single isomer, unassigned)")
4
